Target or test system: C-CBL (residues 46-435) (Homo sapiens)
Construct: Purified CBL-B (residues 36-427) and C-CBL (residues 46-435) proteins from baculovirus-infected insect cells; made in house; host or cells: baculovirus-infected insect cells
Protocol text: Ligand Displacement Assay (LDA), HTRF competitive binding against BODIPY-labeled fluorescent tracer, C-CBL
Experimental context: geometric mean of the number of tests, read-out: C-CBL Ki (nM) GMean
Note to self: Ki under 80 nM means y, ties and anything higher get n.

Could you please tell me whether Ki recorded for CCNC(C)c1nc(C(F)(F)F)cc2c(-c3cccc(C4(Cc5nncn5C)COC4)c3)n[nH]c12 (single isomer, unassigned) [Example C84] is less than 80 nM? n

Input C[C@H](N[C@@H]1CC[C@@H]1O)c1nc(C(F)(F)F)cc2c(-c3cccc([C@H](c4nncn4C)C4CCC4)c3)n[nH]c12 (single isomer, unassigned) ; condition: Ki strictly below 80 nM. Does it hold? y

New cases:
In the record for C[C@@H](NC1(CO)CCC1)c1nc(C(F)(F)F)cc2c(-c3cccc([C@H](c4nncn4C)C4CCC4)c3)n[nH]c12 (single isomer, unassigned) , is Ki less than 80 nM? n

Regarding CCC(c1cccc(-c2n[nH]c3cnc(C(F)(F)F)cc23)c1)c1nncn1C (single isomer, unassigned) , kindly confirm whether its Ki is beneath 80 nM. n

Hi there! Is Ki for C[C@H](c1nc(C(F)(F)F)cc2c(-c3cccc([C@H](c4nncn4C)C4CCC4)c3)n[nH]c12)N1CC[C@H]1CO (single isomer, unassigned) below 80 nM, do you know? n

Would you kindly verify if Ki of CC(c1nc(C(F)(F)F)cc2c(-c3cccc(C4(Cc5nncn5C)COC4)c3)n[nH]c12)N1CCOCC1 (single isomer, unassigned) [Example C23] is strictly less than 80 nM? y

Input C[C@H](N[C@H]1C[C@@H](O)C1)c1nc(C(F)(F)F)cc2c(-c3cccc([C@H](c4nncn4C)C4CCC4)c3)n[nH]c12 (single isomer, unassigned) ; condition: Ki strictly below 80 nM. Does it hold? y

----------
Below, each entry is listed with its recorded Kd.
Target or test system: WT CBL-B (36-427) (Homo sapiens, UniProt Q13191)
Construct: N-terminal biotinylated WT CBL-B (36-427) and C-CBL (46-435) were captured on a streptavidin (SA) coated sensor chip
Protocol text: Surface Plasmon Resonance (SPR) assay, binding affinity and kinetics, CBL-B
Experimental context: SPR at 10° C., biotinylated WT CBL-B (36-427) on streptavidin chip; geometric mean; read-out: CBL-B SPR Kd (nM) GMean
Express your answer in nM, writing the number without its unit.

Illustrative cases are given below, each with its answer.
What value of Kd has been reported for the following compound? CC(N[C@H]1CCOC1)c1nc(C(F)(F)F)cc2c(-c3cccc(C4(Cc5nncn5C)COC4)c3)n[nH]c12 (single isomer, unassigned) [Example C82] 2.3

Entry under review: Cn1cnnc1CC1(c2cccc(-c3n[nH]c4c(CN5CC(F)(F)C5)nc(C(F)(F)F)cc34)c2)COC1 . Reported Kd? 30.2

Here is the next item to consider.
What does the record list as Kd for CC(c1nc(C(F)(F)F)cc2c(-c3cccc(C4(Cc5nncn5C)COC4)c3)n[nH]c12)N1CCC[C@H](C)C1 (single isomer, unassigned) [Example C19] ? 2.4

----------
Target or test system: C-CBL (residues 46-435) (Homo sapiens, UniProt P22681)
Construct: Purified CBL-B (residues 36-427) and C-CBL (residues 46-435) proteins from baculovirus-infected insect cells; made in house; host or cells: baculovirus-infected insect cells
Protocol text: Ligand Displacement Assay (LDA), HTRF competitive binding against BODIPY-labeled fluorescent tracer, C-CBL
Experimental context: geometric mean of the number of tests, read-out: C-CBL Ki (nM) GMean
Property measured: Ki (nM)
Response body: numeric value in nM, unit text excluded.

Entry C[C@@H](N[C@@H]1CC[C@H]1O)c1nc(C(F)(F)F)cc2c(-c3cccc([C@H](c4nncn4C)C4CCC4)c3)n[nH]c12 (single isomer, unassigned) has what Ki? 22.3

For the molecule CC(NCCO)c1nc(C(F)(F)F)cc2c(-c3cccc([C@H](c4nncn4C)C4CCCCC4)c3)n[nH]c12 (single isomer, unassigned) [Example C39] , what Ki is on record? 73.2

Which Ki is reported for this molecule? CC(N[C@H]1CCC[C@@H]1O)c1nc(C(F)(F)F)cc2c(-c3cccc([C@H](c4nncn4C)C4CCCCC4)c3)n[nH]c12 (single isomer, unassigned) [Example C102] 113

Return reported Ki; argument: Cn1cnnc1CC1(c2cccc(-c3n[nH]c4c(CN5CCOCC5)nc(C(F)(F)F)cc34)c2)COC1 120

Which Ki value belongs to C[C@H](N[C@H]1CC[C@@H]1O)c1nc(C(F)(F)F)cc2c(-c3cccc([C@H](c4nncn4C)C4CCC4)c3)n[nH]c12 (single isomer, unassigned) ? 68.1

So what's the measured Ki for this one? CC(NC(=O)CO)c1nc(C(F)(F)F)cc2c(-c3cccc([C@H](c4nncn4C)C4CCC4)c3)n[nH]c12 (single isomer, unassigned) [Example I2] 64.5

Entry CCNC(C)c1nc(C(F)(F)F)cc2c(-c3cccc(C4(Cc5nncn5C)COC4)c3)n[nH]c12 (single isomer, unassigned) [Example C83] has what Ki? 137

Value lookup for Ki; key = C[C@@H](N[C@H]1CCC[C@@H]1O)c1nc(C(F)(F)F)cc2c(-c3cccc([C@H](c4nncn4C)C4CCC4)c3)n[nH]c12 (single isomer, unassigned) 67.8

----------
Target or test system: CBL-B (residues 36-427) (Homo sapiens)
Construct: Purified CBL-B (residues 36-427) and C-CBL (residues 46-435) proteins from baculovirus-infected insect cells; made in house; host or cells: baculovirus-infected insect cells
Protocol text: Ligand Displacement Assay (LDA), HTRF competitive binding against BODIPY-labeled fluorescent tracer, CBL-B
Experimental context: geometric mean of the number of tests, read-out: CBL-B Ki (nM) GMean
Property measured: Ki (nM)
# number only, unit nM dropped from output

Use these answered entries as a reference point.
Field request: Ki | item: CC(N)c1nc(C(F)(F)F)cc2c(-c3cccc(C4(Cc5nncn5C)COC4)c3)n[nH]c12 (single isomer, unassigned) [Example K16] 32

Name the recorded Ki for C[C@@H](N[C@@H]1COC[C@@H]1O)c1nc(C(F)(F)F)cc2c(-c3cccc([C@H](c4nncn4C)C4CCC4)c3)n[nH]c12 (single isomer, unassigned) . 6.2

Continuing:
Given C[C@H](N[C@H]1COC[C@H]1O)c1nc(C(F)(F)F)cc2c(-c3cccc([C@H](c4nncn4C)C4CCC4)c3)n[nH]c12 (single isomer, unassigned) [Example D57] , state its recorded Ki. 5.2

----------
Target or test system: C-CBL (residues 46-435) (Homo sapiens)
Construct: Purified CBL-B (residues 36-427) and C-CBL (residues 46-435) proteins from baculovirus-infected insect cells; made in house; host or cells: baculovirus-infected insect cells
Protocol text: Ligand Displacement Assay (LDA), HTRF competitive binding against BODIPY-labeled fluorescent tracer, C-CBL
Experimental context: geometric mean of the number of tests, read-out: C-CBL Ki (nM) GMean
Text: Ligand Displacement Assay (LDA) […]
Property measured: Ki
Remember to put the unit after the number in your answer.

# input molecule: C[C@H](N[C@@H]1CCOC1)c1nc(C(F)(F)F)cc2c(-c3cccc([C@H](c4nncn4C)C4CCC4)c3)n[nH]c12 (single isomer, unassigned) [Example D2] ; wanted: its Ki 77.1 nM

Please look up its Ki: C[C@H](N)c1nc(C(F)(F)F)cc2c(-c3cccc([C@H](c4nncn4C)C4CCCCC4)c3)n[nH]c12 [Example K2] 287 nM

Consider the molecule shown here: C[C@H](c1nc(C(F)(F)F)cc2c(-c3cccc(C4(Cc5nncn5C)COC4)c3)n[nH]c12)N1CCO[C@@H](C)C1 (single isomer, unassigned) [Example D12] What is its recorded Ki? 52.9 nM

Which value of Ki has been reported for Cn1cnnc1[C@@H](c1cccc(-c2n[nH]c3c(CN4CCOCC4)nc(C(F)(F)F)cc23)c1)C1CCC1 [Example D96] in the records? 377 nM

Can you look up the measured Ki of Cn1cnnc1[C@@H](c1cccc(-c2n[nH]c3c(CN[C@@H]4CC[C@@H]4O)nc(C(F)(F)F)cc23)c1)C1CCC1 (single isomer, unassigned) [Example D93] for me? 2.4 nM

Continuing:
What value of measured Ki is listed for Cn1cnnc1[C@@H](c1cccc(-c2n[nH]c3c(CN[C@H]4CCC(F)(F)C4)nc(C(F)(F)F)cc23)c1)C1CCC1 (single isomer, unassigned) [Example G1] ? 118 nM

Give the measured Ki of C[C@@H](c1nc(C(F)(F)F)cc2c(-c3cccc(C4(Cc5nncn5C)COC4)c3)n[nH]c12)N1CC[C@@H](F)C1 (single isomer, unassigned) [Example D9] . 71.8 nM

Would you mind telling me what Ki value was observed for CC(O)CNC(C)c1nc(C2CC2)cc2c(-c3cccc(C(c4nncn4C)C4CCC4)c3)n[nH]c12 (single isomer, unassigned) [Example H2] ? 18.3 nM

Param item = C[C@H](O)C(=O)N[C@@H](C)c1nc(C(F)(F)F)cc2c(-c3cccc([C@H](c4nncn4C)C4CCC4)c3)n[nH]c12 (single isomer, unassigned) [Example I3] ; retrieve measured Ki. 0.7 nM

Consider the molecule shown here: C[C@H](NC[C@@H](C)O)c1nc(C(F)(F)F)cc2c(-c3cccc([C@H](c4nncn4C)C4CCC4)c3)n[nH]c12 (single isomer, unassigned) [Example D25] What is its recorded Ki? 51.1 nM

Entry Cn1cnnc1[C@@H](c1cccc(-c2n[nH]c3c(CNC4CCNC(=O)C4)nc(C(F)(F)F)cc23)c1)C1CCC1 (single isomer, unassigned) [Example C87] : reported Ki = ? 210 nM
